tested on: ATP; assay: switch fluorescence ratio, 500 uM ATP over buffer (Cy3 cluster intensity, sum of 5 cycles each) (fold (ratio)); higher = stronger signal-on switching upon ATP binding; sequences stand for … in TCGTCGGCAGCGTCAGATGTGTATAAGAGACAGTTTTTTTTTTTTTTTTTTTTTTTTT…TC; conditions: aptamer strand: ATP DNA aptamer (quencher-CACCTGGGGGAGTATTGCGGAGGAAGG + anchor), 100 nM annealed; ATP concentration: 500 uM;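 further: ATP exposure 15 min at 22 °C before imaging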
quantity_measured: switch fluorescence ratio
The reply should be a number, written without any unit.

GTATGTCGGT: 0.997
TAGTAGTTAT: 0.986

# input for lookup
// query Give me measured switch fluorescence ratio, please, for this sequence: AGGGCCAGTC
// result 0.998
